Listed here: items and their measured T/C.
- Tested on: L1210 leukemia ip in BDF1 mice, survival T/C
- ASSAY_OVERVIEW: NCI In Vivo Anticancer Drug Screen. Data for tumor model L1210 Leukemia (intraperitoneal) in B6D2F1 (BDF1) mice
- MEASUREMENT_CONDITIONS: endpoint: mean survival time; dose: 50.0 mg/kg/injection; schedule: Q04DX003 (ip); vehicle: Klucel (hydroxypropylcellulose) (HPC); higher = longer survival
Inconclusive results and toxic doses are left out.

| SMILES_STRING | TGT | T/C |
| --- | --- | --- |
| CC(=O)[O][Hg][c]1s[c]([Hg][O]C(C)=O)[c]([Hg][O]C(C)=O)[c]1[Hg][O]C(C)=O | L1210 leukemia ip in BDF1 mice, survival T/C | 101 % of control |
| CC(=O)OC1=C(Cl)C(=O)C(OC(C)=O)=C(Cl)C1=O | L1210 leukemia ip in BDF1 mice, survival T/C | 106 % of control |
| O=C(CCCN1CCC(n2c(=O)[nH]c3ccccc32)CC1)c1ccc(F)cc1 | L1210 leukemia ip in BDF1 mice, survival T/C | 96 % of control |
| O=C(Nc1ccc(Cl)cc1)N1CC1 | L1210 leukemia ip in BDF1 mice, survival T/C | 98 % of control |
| COc1ccccc1N1CCN(CCc2c[nH]c3cc4c(cc23)OCO4)CC1 | L1210 leukemia ip in BDF1 mice, survival T/C | 105 % of control |
| COc1cc(NC=O)c2ncccc2c1 | L1210 leukemia ip in BDF1 mice, survival T/C | 97 % of control |

Consider the additional compound presented here.
Consider the compound shown here: O=C1NC(=O)C2(CCCCCCC2)N1 What is its recorded T/C?
111 % of control
